# Tested on: ~100 representative kinases
# ASSAY_COMMENT: DSF 100 kinase selectivity screen
# Assay type: binding
# TEST_PARAMETERS: selectivity score: # >5K divided by # of proteins tested in the DSF panel
TEST_READOUT: S(5K)

Examples with answers:
                                   molecule                 study_target  test_readout  result_number
0  CC(C)(C)c1cccc(NC(=O)C2(C(=O)Nc3cccc(-c4c[nH]c5ncnc(N6CCOCC6)c45)c3)CC2)c1 [Compound 22]  ~100 representative kinases         S(5K)          0.221
1  O=C(Nc1cccc(-c2c[nH]c3ncnc(N4CCOCC4)c23)c1)C1(C(=O)Nc2ccc(F)c(Br)c2)CC1 [Compound 19]  ~100 representative kinases         S(5K)          0.308
2  CCc1ccc(NC(=O)C2(C(=O)Nc3cccc(-c4c[nH]c5ncnc(N6CCOCC6)c45)c3)CC2)cc1 [Compound 15]  ~100 representative kinases         S(5K)          0.230
3  O=C(Nc1cccc(-c2c[nH]c3ncnc(N4CCOCC4)c23)c1)C1(C(=O)Nc2ccc(F)c(Cl)c2)CC1 [Compound 18]  ~100 representative kinases         S(5K)          0.360
4  COc1cc(S(C)(=O)=O)ccc1Nc1nc(N(C)C)c2c(Cl)c[nH]c2n1 [Compound 37]  ~100 representative kinases         S(5K)          0.050
5  Cc1ccc(NC(=O)C2(C(=O)Nc3cccc(-c4c[nH]c5ncnc(N6CCOCC6)c45)c3)CC2)cc1 [Compound 14]  ~100 representative kinases         S(5K)          0.220

I: COc1ccc(NC(=O)C2(C(=O)Nc3cccc(-c4c[nH]c5ncnc(N6CCOCC6)c45)c3)CC2)cc1 [Compound 16]
II: O=C(Nc1ccccc1)C1(C(=O)Nc2cccc(-c3c[nH]c4ncnc(N5CCOCC5)c34)c2)CC1 [Compound 12]
III: CC(=O)N1CCN(c2nc(Cl)nc3[nH]cc(-c4cccc(NC(=O)Nc5cc(C(C)(C)C)nn5-c5ccc(C)cc5)c4)c23)CC1 [Compound 31]
List from greatest to least S(5K). Lab note: record answer as labels in requested order. II, III, I
(II: 0.260, III: 0.149, I: 0.100)

A: Cc1cc(F)ccc1NC(=O)C1(C(=O)Nc2cccc(-c3c[nH]c4ncnc(N5CCOCC5)c34)c2)CC1 [Compound 24]
B: O=C(Nc1ccc(F)cc1)C1(C(=O)Nc2cccc(-c3c[nH]c4ncnc(N5CCOCC5)c34)c2)CC1 [Compound 2]
# returns the entry with the larger S(5K); inputs A and B Record your answer as the label of the chosen record. B
(B: 0.280, A: 0.120)

1: O=C(Nc1cccc(-c2c[nH]c3ncnc(N4CCOCC4)c23)c1)C1(C(=O)Nc2cc(Br)c(F)cc2F)CC1 [Compound 25]
2: COc1cc(C(=O)N2CCOCC2)c(F)cc1Nc1nc(N(C)C)c2c(Cl)c[nH]c2n1 [Compound 36]
3: CC(C)(C)c1cc(NC(=O)Nc2cccc(-c3c[nH]c4ncnc(N5CCOCC5)c34)c2)n(-c2ccc3ncccc3c2)n1 [Compound 28]
Put the items in sequence by S(5K), from largest down. Output the labels ranked as instructed. 3, 2, 1

1: Cc1cc(NC(=O)C2(C(=O)Nc3ccc(F)cc3)CC2)cc(-c2c[nH]c3ncnc(N4CCOCC4)c23)c1 [Compound 6]
2: O=C(Nc1cccc(-c2c[nH]c3ncnc(N4CCOCC4)c23)c1)c1cccn(-c2ccc(F)cc2)c1=O [Compound 4]
Hi there! Just curious which has the higher S(5K) between 1 and 2 . When you have decided, please share the label of that item. 2
(2: 0.330, 1: 0.125)

---

# STUDY_TARGET: ~100 representative kinases (Homo sapiens)
# Construct: Recombinant protein kinase domains with a concentration of 2 μM
# ASSAY_COMMENT: DSF 100 kinase selectivity screen;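 on dTm: compound tested at 20 µM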
# Assay type: binding
# TEST_PARAMETERS: protein MARK3; average of three replicates
TEST_READOUT: dTm (K)

Consider the following illustrative entries.
>>> print(df.to_string())
                                   compound  result_number
0  Cc1ccc(C(=O)Nc2ccc(CN3CCN(C)CC3)c(C(F)(F)F)c2)cc1C#Cc1cnc2[nH]ncc2c1 [GZD-824, reference compound]           3.47
1  CC(C)(C)c1cc(NC(=O)Nc2cccc(-c3c[nH]c4ncnc(N5CCOCC5)c34)c2)n(-c2ccc3ncccc3c2)n1           5.67
2  Cn1cc(-c2c[nH]c3ncnc(N4CCOCC4)c23)cc1C#N           2.70

1: Cc1cc(NC(=O)C2(C(=O)Nc3cccc(-c4c[nH]c5ncnc(N6CCOCC6)c45)c3)CC2)ccc1F
2: Cc1cc(F)ccc1NC(=O)C1(C(=O)Nc2cccc(-c3c[nH]c4ncnc(N5CCOCC5)c34)c2)CC1
3: Cc1ccc(-n2nc(C(C)(C)C)cc2NC(=O)Nc2cccc(-c3c[nH]c4nc(Cl)nc(N5CCOCC5)c34)c2)cc1
4: CC(=O)N1CCN(c2nc(Cl)nc3[nH]cc(-c4cccc(NC(=O)Nc5cc(C(C)(C)C)nn5-c5ccc(C)cc5)c4)c23)CC1
// ranking: key=dTm, reverse=True // rank by listing labels in the order requested 1, 2, 4, 3
(1: 8.85 K, 2: 4.53 K, 4: -0.26 K, 3: -0.48 K)

---

# STUDY_TARGET: ~100 representative kinases (Homo sapiens, UniProt Q8IU85)
# Construct: Recombinant protein kinase domains with a concentration of 2 μM
# Sequence (Q8IU85 whole entry, the tested form may be a part): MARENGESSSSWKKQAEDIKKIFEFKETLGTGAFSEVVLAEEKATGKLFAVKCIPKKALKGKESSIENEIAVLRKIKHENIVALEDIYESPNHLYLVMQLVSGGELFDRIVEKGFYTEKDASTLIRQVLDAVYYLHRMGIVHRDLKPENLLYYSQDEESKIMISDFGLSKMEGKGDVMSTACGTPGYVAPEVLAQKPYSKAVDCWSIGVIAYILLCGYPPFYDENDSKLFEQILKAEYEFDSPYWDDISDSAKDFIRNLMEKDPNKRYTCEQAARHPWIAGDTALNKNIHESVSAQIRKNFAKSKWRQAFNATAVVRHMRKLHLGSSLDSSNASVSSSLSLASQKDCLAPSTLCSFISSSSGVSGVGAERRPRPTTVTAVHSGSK
# ASSAY_COMMENT: DSF 100 kinase selectivity screen;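 on dTm: compound tested at 20 µM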
# Assay type: binding
# TEST_PARAMETERS: Protein CAMK1D; average of three replicates
TEST_READOUT: dTm (K)

>>> print(df.to_string())
                                   compound  value_units  result_number
0  O=C(Nc1cc(F)cc(Br)c1)C1(C(=O)Nc2cccc(-c3c[nH]c4ncnc(N5CCOCC5)c34)c2)CC1            K           1.52
1  Cc1ccc(C(=O)Nc2ccc(CN3CCN(C)CC3)c(C(F)(F)F)c2)cc1C#Cc1cnc2[nH]ncc2c1 [GZD-824, reference compound]            K          -0.60
2  O=C(Nc1ccccc1)C1(C(=O)Nc2cccc(-c3c[nH]c4ncnc(N5CCOCC5)c34)c2)CC1            K          -1.41

1: CCc1ccc(NC(=O)C2(C(=O)Nc3cccc(-c4c[nH]c5ncnc(N6CCOCC6)c45)c3)CC2)cc1
2: Cc1ccc(-n2nc(C(C)(C)C)cc2NC(=O)Nc2cccc(-c3c[nH]c4ncnc(N5CCOCC5)c34)c2)cc1
3: O=C(Nc1cccc(-c2c[nH]c3ncnc(N4CCOCC4)c23)c1)C1(C(=O)Nc2ccc(F)c(Cl)c2)CC1
4: O=C(Nc1cccc(-c2c[nH]c3ncnc(N4CCOCC4)c23)c1)C1(C(=O)Nc2ccc(F)c(Br)c2)CC1
Task for the reader: rank each entry by its dTm, from the minimum upward. Answer format: list of labels, ordered as asked. 1, 3, 2, 4
(1: -1.11 K, 3: 1.04 K, 2: 1.72 K, 4: 3.06 K)

---

# STUDY_TARGET: ~100 representative kinases (Homo sapiens, UniProt P52564)
# Construct: Recombinant protein kinase domains with a concentration of 2 μM
# Sequence (P52564 whole entry, the tested form may be a part): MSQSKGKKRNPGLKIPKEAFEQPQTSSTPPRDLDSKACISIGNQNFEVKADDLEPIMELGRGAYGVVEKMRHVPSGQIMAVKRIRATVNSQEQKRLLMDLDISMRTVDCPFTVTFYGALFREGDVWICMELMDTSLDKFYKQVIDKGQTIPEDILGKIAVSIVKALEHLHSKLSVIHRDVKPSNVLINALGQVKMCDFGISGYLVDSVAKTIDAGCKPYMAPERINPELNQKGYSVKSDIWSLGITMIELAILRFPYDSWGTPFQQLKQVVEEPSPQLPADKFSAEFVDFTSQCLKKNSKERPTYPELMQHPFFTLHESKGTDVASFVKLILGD
# ASSAY_COMMENT: DSF 100 kinase selectivity screen;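 on dTm: compound tested at 20 µM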
# Format: binding
# TEST_PARAMETERS: protein MAP2K6; average of three replicates
TEST_READOUT: dTm (K)

P: CC(C)(C)c1cc(NC(=O)Nc2cccc(-c3c[nH]c4ncnc(N5CCOCC5)c34)c2)n(-c2ccc3ncccc3c2)n1
Q: Cc1ccc(-n2nc(C(C)(C)C)cc2NC(=O)Nc2cccc(-c3c[nH]c4nc(Cl)nc(N5CCOCC5)c34)c2)cc1
Form: Entry with minimum dTm (choose one): P / Q Your choice should be expressed through its label. Q
(Q: 0.45 K, P: 1.76 K)

I: O=C(Nc1cccc(-c2c[nH]c3ncnc(N4CCOCC4)c23)c1)C1(C(=O)Nc2ccc(F)c(Br)c2)CC1
II: COc1ccc(NC(=O)C2(C(=O)Nc3cccc(-c4c[nH]c5ncnc(N6CCOCC6)c45)c3)CC2)cc1
III: Cc1cc(NC(=O)C2(C(=O)Nc3ccc(F)cc3)CC2)cc(-c2c[nH]c3ncnc(N4CCOCC4)c23)c1
Order the records so the highest dTm appears first and the lowest last. I'd appreciate it if you listed the labels in the requested order. I, III, II

1: O=C(Nc1cccc(-c2c[nH]c3ncnc(N4CCOCC4)c23)c1)C1(C(=O)Nc2cc(Br)c(F)cc2F)CC1
2: O=C(Nc1cccc(-c2c[nH]c3ncnc(N4CCOCC4)c23)c1)C1(C(=O)Nc2ccc(F)cc2F)CC1
Compare the recorded dTm of 1 and 2 ; state which is larger. Refer to your chosen entry by its label in the reply. 1
(1: 3.34 K, 2: 1.78 K)

a: Cc1cc(NC(=O)C2(C(=O)Nc3cccc(-c4c[nH]c5ncnc(N6CCOCC6)c45)c3)CC2)ccc1F
b: O=C(Nc1cccc(-c2c[nH]c3ncnc(N4CCOCC4)c23)c1)C1(C(=O)Nc2ccc(F)c(F)c2)CC1
Looking at a and b , which one comes out lower in dTm terms? Reply with the label of the item you choose. b
(b: 2.36 K, a: 3.64 K)

A: O=C(Nc1cccc(-c2c[nH]c3ncnc(N4CCOCC4)c23)c1)C1(C(=O)Nc2cccc3c2CCC3)CC1
B: Cc1ccc(NC(=O)C2(C(=O)Nc3cccc(-c4c[nH]c5ncnc(N6CCOCC6)c45)c3)CC2)cc1
Between the entries labelled A and B , which has a larger dTm value on record? Could you answer with the label of the item you picked? A
